- assay.explanation: Plasma PK of emodepside in the main trial, LC-MS/MS
- Assay type: in vivo, zebu (Ngaoundéré Gudali) cattle (B. t. indicus)
- cond: Ngaoundéré Gudali zebu, bovine, plasma, iv, 0.15 mg/kg, EMO7L, 0.15 mg/kg IV daily for 7 days; animals in order B0549, B0725, B0733; read-out: Time of observed Cmax in plasma (converted)
measurement.kind: Tmax (min)
Hi! Could you send only the number? It should be in min, unit omitted.

Recorded Tmax (molecule CC(C)C[C@H]1C(=O)O[C@H](Cc2ccc(N3CCOCC3)cc2)C(=O)N(C)[C@@H](CC(C)C)C(=O)O[C@H](C)C(=O)N(C)[C@@H](CC(C)C)C(=O)O[C@H](Cc2ccc(N3CCOCC3)cc2)C(=O)N(C)[C@@H](CC(C)C)C(=O)O[C@H](C)C(=O)N1C [emodepside] ): 5
